Tested on: Entamoeba Histolytica
QUANTITY KIND: MIC (µg/mL)

>>> test_result("Cc1ncc([N+](=O)[O-])n1CCN1CCN(C)CC1")
26
>>> test_result("Cc1ncc([N+](=O)[O-])n1CCO [Metronidazole, reference compound]")
25
>>> test_result("CN1CCN(CCCn2cncc2[N+](=O)[O-])CC1")
51.2
>>> test_result("CCOC(=O)N1CCN(CCn2cncc2[N+](=O)[O-])CC1")
66.1
>>> test_result("CN1CCN(CCCn2c([N+](=O)[O-])cnc2-c2ccccc2)CC1")
39
>>> test_result("CCOC(=O)N1CCN(CCCn2c([N+](=O)[O-])cnc2C)CC1")
40.1
>>> test_result("CCc1ncc([N+](=O)[O-])n1CCCN1CCN(C)CC1")
26
>>> test_result("Cc1ncc([N+](=O)[O-])n1CCCN1CCN(C)CC1")
22
>>> test_result("CN1CCN(CCn2c([N+](=O)[O-])cnc2-c2ccccc2)CC1")
43
>>> test_result("CCS(=O)(=O)CCn1c([N+](=O)[O-])cnc1C [Tinidazole, reference compound]")
32
>>> test_result("CCN1CCN(CCCn2cncc2[N+](=O)[O-])CC1")
60.1
>>> test_result("CCOC(=O)N1CCN(CCCn2cncc2[N+](=O)[O-])CC1")
53.1
>>> test_result("O=C1NCCN1c1ncc([N+](=O)[O-])s1 [NIRIDAZOLE, reference compound]")
28
>>> test_result("COC(=O)N1CCN(CCCn2c([N+](=O)[O-])cnc2C)CC1")
45
>>> test_result("CN1CCN(CCn2cncc2[N+](=O)[O-])CC1")
63.1

---

System: Trichomonas Vaginalis
TEST: Systemic activity in mice infected subcutaneously with Trichomonas Vaginalis
Assay type: in vivo
CONDITION LABEL: Trichomonas vaginalis, 168 h; oral, twice a day over 5 days; dose preventing infection in 84% of animals; (S)/(NS) = significance of regression line; read-out: ED84, anti-trichomonas activity in mice
Classes are defined on ED84 with ranges band A: < 50 mg/kg; band B: ≥ 50 mg/kg and < 70 mg/kg; band C: ≥ 70 mg/kg

>>> label("CCc1ncc([N+](=O)[O-])n1CCCN1CCN(C)CC1")
"band A"
>>> label("CCN1CCN(CCCn2cncc2[N+](=O)[O-])CC1")
"band B"
>>> label("CCOC(=O)N1CCN(CCCn2cncc2[N+](=O)[O-])CC1")
"band C"
>>> label("CN1CCN(CCCn2c([N+](=O)[O-])cnc2-c2ccccc2)CC1")
"band A"
>>> label("CCOC(=O)N1CCN(CCCn2c([N+](=O)[O-])cnc2C)CC1")
"band C"
>>> label("Cc1ncc([N+](=O)[O-])n1CCN1CCN(C)CC1")
"band B"
>>> label("Cc1ncc([N+](=O)[O-])n1CCCN1CCN(C)CC1")
"band A"
>>> label("CN1CCN(CCn2cncc2[N+](=O)[O-])CC1")
"band C"
>>> label("Cc1ncc([N+](=O)[O-])n1CCO [Metronidazole, reference compound]")
"band A"
>>> label("O=[N+]([O-])c1cncn1CCN1CCOCC1 [Nimorazole, reference compound]")
"band B"

---

Test system: Entamoeba Histolytica
TEST: Systemic activity on hepatic abscess from Entamoeba Histolytica in the hamster
Type: in vivo
CONDITION LABEL: Entamoeba histolytica, 72 h; oral, twice a day for four days; dose reducing abscess weight by 84% vs controls; (S)/(NS) = significance of regression line; read-out: ED84, anti-amoebic activity in the hamster
ED84 overview
QUANTITY KIND: ED84 (mg/kg)

>>> test_result("Cc1ncc([N+](=O)[O-])n1CCCN1CCN(C)CC1")
54.2
>>> test_result("Cc1ncc([N+](=O)[O-])n1CCO [Metronidazole, reference compound]")
108
>>> test_result("CN1CCN(CCn2cncc2[N+](=O)[O-])CC1")
108
>>> test_result("Cc1ncc([N+](=O)[O-])n1CCN1CCN(C)CC1")
77.1
>>> test_result("CCS(=O)(=O)CCn1c([N+](=O)[O-])cnc1C [Tinidazole, reference compound]")
98
>>> test_result("CCOC(=O)N1CCN(CCCn2c([N+](=O)[O-])cnc2C)CC1")
75.5
>>> test_result("CN1CCN(CCCn2cncc2[N+](=O)[O-])CC1")
86.3
>>> test_result("O=[N+]([O-])c1cncn1CCN1CCOCC1 [Nimorazole, reference compound]")
133
>>> test_result("CCOC(=O)N1CCN(CCCn2cncc2[N+](=O)[O-])CC1")
84.7
>>> test_result("CN1CCN(CCCn2c([N+](=O)[O-])cnc2-c2ccccc2)CC1")
130
